Origin of values: ChEMBL document CHEMBL1147455

Assay: Steady state volume distribution in rat
Type: ADME, organism-based
Details: in vivo, read-out: Vss
// classify: if (Vd < 2 L/kg) t else f

Exercise: # strict comparison: is reported Vd < 2 L/kg? input = `O=C(NO)[C@@]1(NS(=O)(=O)c2ccc(Oc3ccc(F)cc3)cc2)CCCOC1`
Solution: f

Exercise: Decide: Vd of O=C(NO)[C@@]1(NS(=O)(=O)c2ccc(Oc3ccc(Cl)cc3)cc2)CCCOC1 (stereo in doubt; form 2) strictly below 2 L/kg?
Solution: t

Exercise: Identify whether the molecule `O=C(NO)[C@@]1(NS(=O)(=O)c2ccc(Oc3ccc(Cl)cc3)cc2)CCOC1` records Vd below 2 L/kg.
Solution: t

Exercise: Confirm or reject: Vd of `O=C(NO)[C@@]1(NS(=O)(=O)c2ccc(Oc3ccc(Cl)cc3)cc2)C[C@H]2CC[C@@H](C1)O2` lies strictly below 2 L/kg
Solution: f

Exercise: Please determine if `O=C(NO)C1(NS(=O)(=O)c2ccc(Oc3ccc(Cl)cc3)cc2)CCOCC1` is below 2 L/kg in terms of Vd.
Solution: f

Exercise: Here's an entry: `O=C(NO)C1(NS(=O)(=O)c2ccc(Oc3ccc(F)cc3)cc2)CCOCC1` . Is its Vd below 2 L/kg?
Solution: t

Exercise: Dear colleague, could you confirm whether Vd of `O=C(NO)[C@@]1(NS(=O)(=O)c2ccc(Oc3ccc(F)cc3)cc2)C[C@H]2CC[C@@H](C1)O2` falls below 2 L/kg? Thanks.
Solution: t

---

Can you tell me bioavailability for the items I'm about to list?
Assay: Oral bioavailability in rat
Type: ADME, organism-based
Settings: in vivo

Exercise: # get_value(readout='bioavailability', item= `O=C(NO)C1(NS(=O)(=O)c2ccc(Oc3ccc(F)cc3)cc2)CCOCC1` )
Solution: 29%

Exercise: Please look up its bioavailability: O=C(NO)[C@@]1(NS(=O)(=O)c2ccc(Oc3ccc(Cl)cc3)cc2)CCCOC1 (stereo in doubt; form 2)
Solution: 31%

Exercise: What does the record list as bioavailability for `O=C(NO)[C@@]1(NS(=O)(=O)c2ccc(Oc3ccc(F)cc3)cc2)C[C@H]2CC[C@@H](C1)O2` ?
Solution: 90%

Exercise: Which measured bioavailability value corresponds to `O=C(NO)[C@@]1(NS(=O)(=O)c2ccc(Oc3ccc(Cl)cc3)cc2)C[C@H]2CC[C@@H](C1)O2` ?
Solution: 39%

Exercise: Reported bioavailability for `O=C(NO)C1(NS(=O)(=O)c2ccc(Oc3ccc(Cl)cc3)cc2)CCOCC1` : what is it?
Solution: 72%

---

Assay: Oral bioavailability in dog
Type: ADME, organism-based, Canis lupus familiaris
Details: in vivo
Give measured bioavailability for each item. Keep answers brief.
Quick reminder: number only, in %, skip the unit.

Exercise: Using the record for `O=C(NO)C1(NS(=O)(=O)c2ccc(Oc3ccc(Cl)cc3)cc2)CCOCC1` , report its bioavailability.
Solution: 62

Exercise: What does the data say about its bioavailability? Entry: `O=C(NO)[C@@]1(NS(=O)(=O)c2ccc(Oc3ccc(F)cc3)cc2)C[C@H]2CC[C@@H](C1)O2`
Solution: 86

Exercise: Given `O=C(NO)C1(NS(=O)(=O)c2ccc(Oc3ccc(F)cc3)cc2)CCOCC1` , state its recorded bioavailability.
Solution: 52

---

Assay: Half life in dog
Assay type: ADME, organism-based, Canis lupus familiaris
Details: in vivo
Could you please report measured half-life for the items listed next?
Reply numerically in h, unit not repeated.

Exercise: I would be grateful if you could share the reported half-life for `O=C(NO)[C@@]1(NS(=O)(=O)c2ccc(Oc3ccc(F)cc3)cc2)C[C@H]2CC[C@@H](C1)O2` .
Solution: 6.5

Exercise: What measured half-life goes with `O=C(NO)[C@@]1(NS(=O)(=O)c2ccc(Oc3ccc(F)cc3)cc2)CCCOC1` ?
Solution: 5.8

Exercise: Look up half-life: O=C(NO)[C@@]1(NS(=O)(=O)c2ccc(Oc3ccc(Cl)cc3)cc2)CCCOC1 (stereo in doubt; form 2)
Solution: 11

Exercise: What does the record list as half-life for `O=C(NO)C1(NS(=O)(=O)c2ccc(Oc3ccc(F)cc3)cc2)CCOCC1` ?
Solution: 6.5

Exercise: Would you mind telling me what half-life value was observed for `O=C(NO)C1(NS(=O)(=O)c2ccc(Oc3ccc(Cl)cc3)cc2)CCOCC1` ?
Solution: 6
